Sequence of the target: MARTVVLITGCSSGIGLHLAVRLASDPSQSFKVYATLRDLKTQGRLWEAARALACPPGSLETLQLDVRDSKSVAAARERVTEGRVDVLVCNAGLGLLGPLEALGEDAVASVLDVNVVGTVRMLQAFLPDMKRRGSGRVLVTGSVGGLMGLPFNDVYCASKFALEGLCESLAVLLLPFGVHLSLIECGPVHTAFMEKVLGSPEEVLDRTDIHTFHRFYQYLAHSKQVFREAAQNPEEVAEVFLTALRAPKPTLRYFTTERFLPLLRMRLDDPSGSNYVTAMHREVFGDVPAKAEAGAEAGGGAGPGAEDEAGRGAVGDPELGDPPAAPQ
pIC50: −log10 of the molar value.
Below is a list of entries, each paired with its recorded pIC50 value.

{"STRUCTURE SMILES": "COc1cccc(S(=O)(=O)Nc2cccc(-c3ccc(C(=O)c4cccc(O)c4)s3)c2)c1", "pIC50": 7.46}
{"STRUCTURE SMILES": "Cc1ccccc1S(=O)(=O)Nc1cccc(-c2ccc(C(=O)c3cccc(O)c3)s2)c1", "pIC50": 7.77}
{"STRUCTURE SMILES": "O=C(c1ccc(F)c(O)c1)c1cc2cc(O)ccc2s1", "pIC50": 7.05}
{"STRUCTURE SMILES": "N#Cc1ccc(S(=O)(=O)Nc2cccc(-c3ccc(C(=O)c4cccc(O)c4)s3)c2)cc1", "pIC50": 7.25}
